meta.source: patent EP3319959B1

biological target: HDAC1 (Homo sapiens); experiment: Reporter displacement assay (HDAC1)
Sequence (Q13547 whole entry): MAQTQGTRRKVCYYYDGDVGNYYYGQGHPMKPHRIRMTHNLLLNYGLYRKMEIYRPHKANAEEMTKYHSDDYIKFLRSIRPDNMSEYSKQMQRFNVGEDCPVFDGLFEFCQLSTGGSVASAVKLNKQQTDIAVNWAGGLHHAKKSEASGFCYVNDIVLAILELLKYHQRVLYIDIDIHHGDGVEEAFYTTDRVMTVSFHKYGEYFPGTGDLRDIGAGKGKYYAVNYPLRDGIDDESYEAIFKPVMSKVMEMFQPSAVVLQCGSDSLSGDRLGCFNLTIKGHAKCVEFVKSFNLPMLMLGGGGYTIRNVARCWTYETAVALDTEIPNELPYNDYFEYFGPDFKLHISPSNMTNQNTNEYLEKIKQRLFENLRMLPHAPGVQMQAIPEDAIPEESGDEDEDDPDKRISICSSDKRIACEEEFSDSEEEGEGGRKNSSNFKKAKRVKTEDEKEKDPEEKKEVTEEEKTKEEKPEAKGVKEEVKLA
pKd: −log10 of the molar value.
value.kind: pKd

These solved cases illustrate the format of a correct answer.
compound | result.value
Nc1ccc(-c2ccncc2)nc1NC(=O)N1CCCC1 [Compound 111] | < 5.30
Nc1ccc(-c2ccc(F)cc2)nc1NC(=O)N1Cc2nccnc2C1 [Compound 120] | 6.30 to 7.00
Nc1cnc(-c2ccc(F)cc2)cc1NC(=O)N1CCCC1 [Compound 105] | 5.30 to 6.30
Nc1ccc(-c2ccc(F)c(F)c2)c(F)c1NC(=O)N1CCCC1 [Compound 117] | < 5.30
Nc1ccc(-c2ccc(F)cc2)nc1NC(=O)N1CCCC1 [Compound 107] | 5.30 to 6.30

Q: Assign pKd to the following record: Nc1cn(-c2ccccc2)nc1NC(=O)N1Cc2ccncc2C1 [Compound 122]
A: 6.30 to 7.00

Q: Assign pKd to the following record: Nc1nn(-c2ccccc2)cc1NC(=O)N1Cc2ccncc2C1 [Compound 101]
A: < 5.30

Q: Assign pKd to the following record: Nc1cc(F)c(-c2ccc(F)c(F)c2)cc1NC(=O)N1CCCC1 [Compound 116]
A: 5.30 to 6.30

Q: Assign pKd to the following record: Nc1cnc(-c2ccncc2)cc1NC(=O)N1CCCC1 [Compound 108]
A: 5.30 to 6.30
